- target-system: human CB2 receptor (Homo sapiens, UniProt P34972)
- Construct: host or cells: CHO-K1
- Sequence (P34972 whole entry): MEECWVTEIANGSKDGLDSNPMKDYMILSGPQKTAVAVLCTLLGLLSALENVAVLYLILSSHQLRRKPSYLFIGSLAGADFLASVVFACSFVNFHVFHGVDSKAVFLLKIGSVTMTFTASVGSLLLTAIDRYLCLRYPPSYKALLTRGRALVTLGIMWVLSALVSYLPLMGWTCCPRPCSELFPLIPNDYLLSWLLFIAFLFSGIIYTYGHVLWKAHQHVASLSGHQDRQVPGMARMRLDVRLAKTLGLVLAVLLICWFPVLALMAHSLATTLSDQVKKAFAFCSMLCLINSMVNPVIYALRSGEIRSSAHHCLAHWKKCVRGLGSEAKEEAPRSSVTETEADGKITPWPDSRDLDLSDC
- assay-method-text: CB2 radioligand competitive binding assay ([3H]CP 55,940 displacement)
- assay-context: fold difference between CB1 and CB2 binding, the receptor with higher binding affinity (CB2 over CB1)
quantity-name: Selectivity CB2 (fold)
State just the number; it will be interpreted in fold.

Below, 4 compounds whose answers are already recorded.
* CCCCCc1cc(O)c(C/C=C(\C)CCC=C(C)C)c(O)c1-c1cn[nH]c1 [Compound 38] | 1.21
* CCCCCc1cc(O)c(C/C=C(\C)CCC=C(C)C)c(O)c1-c1cncnc1 [Compound 13] | 1.85
* CCCCCc1cc(O)c(C/C=C(\C)CCC=C(C)C)c(O)c1-c1ccsc1 [Compound 17] | 2.10
* CCCCCc1cc(O)c(C/C=C(\C)CCC=C(C)C)c(O)c1-c1cncs1 [Compound 18] | 2.32

Please examine the following record next.
(Q) Can you share its Selectivity CB2? I mean this compound: CCCCCc1cc(O)c(C/C=C(\C)CCC=C(C)C)c(O)c1-c1ccncc1 [Compound 14]
(A) 2.27

###

- target-system: human CB1 receptor (Homo sapiens, UniProt P21554)
- Construct: host or cells: CHO-K1
- Sequence (P21554 whole entry): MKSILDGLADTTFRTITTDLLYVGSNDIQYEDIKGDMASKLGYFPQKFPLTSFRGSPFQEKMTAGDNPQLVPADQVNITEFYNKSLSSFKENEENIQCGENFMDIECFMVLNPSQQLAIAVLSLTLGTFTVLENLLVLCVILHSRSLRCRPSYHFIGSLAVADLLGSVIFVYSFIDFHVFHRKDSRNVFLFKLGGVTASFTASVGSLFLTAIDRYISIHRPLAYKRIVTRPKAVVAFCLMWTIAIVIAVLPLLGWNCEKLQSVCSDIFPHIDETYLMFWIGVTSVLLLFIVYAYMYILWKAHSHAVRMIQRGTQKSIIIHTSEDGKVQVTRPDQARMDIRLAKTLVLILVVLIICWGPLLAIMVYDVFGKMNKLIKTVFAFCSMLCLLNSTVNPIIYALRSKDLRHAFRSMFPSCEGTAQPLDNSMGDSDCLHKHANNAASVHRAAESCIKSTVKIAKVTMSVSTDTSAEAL
- assay-method-text: CB1 radioligand competitive binding assay ([3H]CP 55,940 displacement)
- assay-context: fold difference between CB1 and CB2 binding, (CB1 over CB2)
# Selectivity CB1 annotations
Numeric answer only, unit fold assumed.

Observe how each entry below is paired with its result.
- CCCc1cc(O)c(C/C=C(\C)CCC=C(C)C)c(O)c1-c1cc2ccccc2o1: 1.67
- CCCCCc1cc(O)c(C/C=C(\C)CCC=C(C)C)c(O)c1-c1ccc2[nH]ncc2c1: 79.18

(Q) Selectivity CB1 of CCCCCc1cc(O)c(C/C=C(\C)CCC=C(C)C)c(O)c1-c1cc2ccccc2o1 on human CB1 receptor (Homo sapiens, UniProt P21554)?
(A) 1.16

(Q) Any idea what Selectivity CB1 came out for CCCCCc1cc(O)c(C/C=C(\C)CCC=C(C)C)c(O)c1-c1ccc2nccnc2c1 on human CB1 receptor (Homo sapiens, UniProt P21554)?
(A) 1.65

(Q) Find Selectivity CB1 (human CB1 receptor (Homo sapiens, UniProt P21554)) for the entry CCCCCc1cc(O)c(C/C=C(\C)CCC=C(C)C)c(O)c1-c1cnc2ccccc2c1
(A) 2.69

###

// values below are pIC50; system is human CB2 receptor (Homo sapiens, UniProt P34972)
pIC50: −log10 of the molar value.

* CCCCCc1cc(O)c(C/C=C(\C)CCC=C(C)C)c(O)c1-c1ccc2nccnc2c1 | 5.30 to 6.00

(Q) What is its pIC50 for human CB2 receptor (Homo sapiens, UniProt P34972)? Entry: CCCCCc1cc(O)c(C/C=C(\C)CCC=C(C)C)c(O)c1-c1cc2ccccc2s1
(A) 6.00 to 6.30

(Q) Request - read-out pIC50 | tested on human CB2 receptor (Homo sapiens, UniProt P34972) | compound CCCCCc1cc(O)c(C/C=C(\C)CCC=C(C)C)c(O)c1-c1ccncc1
(A) 6.00 to 6.30

(Q) Fill in the recorded pIC50 for this compound, with human CB2 receptor (Homo sapiens, UniProt P34972) as test system: CCCCCc1cc(O)c(C/C=C(\C)CCC=C(C)C)c(O)c1-c1cncnc1
(A) 5.30 to 6.00

(Q) For the record CCCCCc1cc(O)c(C/C=C(\C)CCC=C(C)C)c(O)c1-c1cc2ccccc2o1 , what value of pIC50 is listed for human CB2 receptor (Homo sapiens, UniProt P34972)?
(A) 5.30 to 6.00

###

Below, each entry is listed with its recorded Selectivity CB2.
- target-system: human CB2 receptor (Homo sapiens, UniProt P34972)
- Construct: host or cells: CHO-K1
- assay-method-text: CB2 radioligand competitive binding assay ([3H]CP 55,940 displacement)
- assay-context: fold difference between CB1 and CB2 binding, the receptor with higher binding affinity (CB2 over CB1)
Reply with the number, then its unit.

These solved cases illustrate the format of a correct answer.
- CCCCCc1cc(O)c(C/C=C(\C)CCC=C(C)C)c(O)c1-c1cccc(N2CCOCC2)c1: 8.93 fold
- CCCCCc1cc(O)c(C/C=C(\C)CCC=C(C)C)c(O)c1-c1cc(C)cs1: 2.15 fold
- CCCCCc1cc(O)c(C/C=C(\C)CCC=C(C)C)c(O)c1-c1cc2ccccc2s1: 1.45 fold
- CCCCCc1cc(O)c(C/C=C(\C)CCC=C(C)C)c(O)c1-c1ccnn1C: 1.21 fold
- CCCc1cc(O)c(C/C=C(\C)CCC=C(C)C)c(O)c1-c1ccsc1: 2.26 fold

(Q) May I ask what Selectivity CB2 has been recorded for CCCCCc1cc(O)c(C/C=C(\C)CCC=C(C)C)c(O)c1-c1ccco1 ?
(A) 2.11 fold

(Q) Which Selectivity CB2 is listed for CCCCCc1cc(O)c(C/C=C(\C)CCC=C(C)C)c(O)c1-c1ccnc(C)c1 ?
(A) 2.18 fold

(Q) // query Selectivity CB2 value for entry CCCCCc1cc(O)c(C/C=C(\C)CCC=C(C)C)c(O)c1-c1c(C)noc1C
(A) 7.14 fold

###

Here's what we have: IC50 numbers for human CB1 receptor (Homo sapiens).

Look over these answered cases.
* CCCCCc1cc(O)c(C/C=C(\C)CCC=C(C)C)c(O)c1-c1cnc2ccccc2c1 [Compound 42] | 500 to 990 nM
* CCCCCc1cc(O)c(C/C=C(\C)CCC=C(C)C)c(O)c1-c1cncs1 [Compound 18] | 1000 to 4990 nM
* CCCCCc1cc(O)c(C/C=C(\C)CCC=C(C)C)c(O)c1-c1ccsc1 [Compound 17] | 1000 to 4990 nM
* CCCCCc1cc(O)c(C/C=C(\C)CCC=C(C)C)c(O)c1-c1cc(C)cs1 [Compound 34] | 500 to 990 nM
* CCCCCc1cc(O)c(C/C=C(\C)CCC=C(C)C)c(O)c1-c1ccc2nccnc2c1 [Compound 40] | 500 to 990 nM
* CCCCCc1cc(O)c(C/C=C(\C)CCC=C(C)C)c(O)c1-c1ccncc1 [Compound 14] | 1000 to 4990 nM

(Q) What value of IC50 has been reported for the following compound? CCCc1cc(O)c(C/C=C(\C)CCC=C(C)C)c(O)c1-c1ccsc1 [Compound 43]
(A) 1000 to 4990 nM

(Q) Fill blank: measured IC50 of the compound CCCCCc1cc(O)c(C/C=C(\C)CCC=C(C)C)c(O)c1-c1ccnc(C)c1 [Compound 39] is ____.
(A) 1000 to 4990 nM

###

- target-system: human CB2 receptor (Homo sapiens)
quantity-name: IC50

Recorded results for 8 molecules are shown here.
• CCCCCc1cc(O)c(C/C=C(\C)CCC=C(C)C)c(O)c1-c1cn[nH]c1 [Compound 38] = 500 to 990 nM
• CCCc1cc(O)c(C/C=C(\C)CCC=C(C)C)c(O)c1-c1ccsc1 [Compound 43] = 500 to 990 nM
• CCCCCc1cc(O)c(C/C=C(\C)CCC=C(C)C)c(O)c1-c1c(C)noc1C [Compound 37] = 1000 to 4990 nM
• CCCc1cc(O)c(C/C=C(\C)CCC=C(C)C)c(O)c1-c1cc2ccccc2o1 [Compound 44] = 1000 to 4990 nM
• CCCCCc1cc(O)c(C/C=C(\C)CCC=C(C)C)c(O)c1-c1cc(C)cs1 [Compound 34] = < 500 nM
• CCCCCc1cc(O)c(C/C=C(\C)CCC=C(C)C)c(O)c1-c1ccco1 [Compound 15] = 1000 to 4990 nM
• CCCCCc1cc(O)c(C/C=C(\C)CCC=C(C)C)c(O)c1-c1ccsc1 [Compound 17] = 500 to 990 nM
• CCCCCc1cc(O)c(C/C=C(\C)CCC=C(C)C)c(O)c1-c1cnc2ccccc2c1 [Compound 42] = 1000 to 4990 nM

(Q) // returns reported IC50 for input CCCCCc1cc(O)c(C/C=C(\C)CCC=C(C)C)c(O)c1-c1ccc2[nH]ncc2c1 [Compound 41]
(A) 500 to 990 nM

(Q) Which IC50 is listed for CCCCCc1cc(O)c(C/C=C(\C)CCC=C(C)C)c(O)c1-c1cncs1 [Compound 18] ?
(A) 500 to 990 nM

(Q) What measured IC50 goes with CCCCCc1cc(O)c(C/C=C(\C)CCC=C(C)C)c(O)c1-c1cccc(N2CCOCC2)c1 [Compound 36] ?
(A) < 500 nM

(Q) What value of IC50 has been recorded for this entry: CCCCCc1cc(O)c(C/C=C(\C)CCC=C(C)C)c(O)c1-c1ccnn1C [Compound 35]
(A) 1000 to 4990 nM

(Q) Return reported IC50; argument: CCCCCc1cc(O)c(C/C=C(\C)CCC=C(C)C)c(O)c1-c1ccnc(C)c1 [Compound 39]
(A) 500 to 990 nM
